measured on: human HSV DNA polymerase UL30 (Human herpesvirus 1 (strain 17) (HHV-1) (Human herpes simplex virus 1), UniProt P04293)
assay info: HSV polymerase biochemical assay (molecular beacon-based)
Protocol: Both human CMV DNA polymerase UL54 and human HSV DNA polymerase UL30 were produced as N-terminal MBP fusion of the full length, wild type recombinant proteins in order to enhance soluble expression in insect cell expression system. The proteins were expressed in sf9 insect cells via baculovirus transduction and cells were harvested after 48 hours. […] DNA polymerase activity was measured using a molecular beacon-based assay, as described in Ma et. al. […]
Would you mind telling me the reported pIC50 of each entry?
Give bare numbers, as −log10 of the molar value.

C[C@H](NC(=O)c1ccc2n(c1=O)CCN(CC1(S(C)(=O)=O)CC1)C2=O)c1ccc(Cl)cc1 = 4.20
N#Cc1ccc(CNC(=O)c2ccc3n(c2=O)CCN(CC2(S(=O)(=O)[C@@H]4CC4(F)F)CC2)C3=O)cc1F (single isomer, unassigned) = 7.48
CS(=O)(=O)CCCN1CCn2c(c(CF)cc(C(=O)NCc3ccc(Cl)cc3)c2=O)C1=O = 5.66
CS(=O)(=O)CCCN1CCn2c(c(C#CCO)cc(C(=O)NCc3ccc(Cl)cc3)c2=O)C1=O = 5.68
Cc1cc(C(=O)NCc2ccc(Cl)cc2)c(=O)n2c1C(=O)N(CC1(S(C)(=O)=O)CC1)CC2 = 7.34

Batch lookup, pIC50 per entry.
1. CS(=O)(=O)C1(CN2CCn3c(ccc(C(=O)NCc4ccc(Br)cc4)c3=O)C2=O)CC1
2. CN(CCN1CCn2c(c(CO)cc(C(=O)NCc3ccc(Cl)cc3)c2=O)C1=O)S(C)(=O)=O

Key:
6.95
5.41

====

Give measured pIC50 for each item. Keep answers brief.
measured on: human HSV DNA polymerase UL30 (Human herpesvirus 1 (strain 17) (HHV-1) (Human herpes simplex virus 1))
assay info: HSV polymerase biochemical assay (molecular beacon-based)
One number for each entry, as −log10 of the molar value.

CCS(=O)(=O)C1(CN2CCn3c(ccc(C(=O)NCc4ccc(C#N)c(F)c4)c3=O)C2=O)CC1 [Example 34] = 7.16

Each of the following entries comes with a recorded value; kindly state pIC50 for each.
1. CC(C)(C#N)S(=O)(=O)C1(CN2CCn3c(ccc(C(=O)NCc4ccc(Cl)cc4)c3=O)C2=O)CC1 [Example 185]
2. N#Cc1ccc(CNC(=O)c2ccc3n(c2=O)CCN(CC2(N4CCOC4=O)CC2)C3=O)cc1 [Example 89-2]
3. CS(=O)(=O)CCCN1CCn2c(c(CO)cc(C(=O)NCc3ccc(Cl)cc3)c2=O)C1=O [Example 139]
4. CN(C(C)(C)C)S(=O)(=O)C1(CN2CCn3c(ccc(C(=O)NCc4ccc(C#N)cc4)c3=O)C2=O)CC1 [Example 75-1]

Key:
1: 7.53; 2: 5.60; 3: 5.45; 4: 7.34

====

measured on: human HSV DNA polymerase UL30 (Human herpesvirus 1 (strain 17) (HHV-1) (Human herpes simplex virus 1))
assay info: HSV polymerase biochemical assay (molecular beacon-based)
Description: Both human CMV DNA polymerase UL54 and human HSV DNA polymerase UL30 were produced as N-terminal MBP fusion of the full length, wild type recombinant proteins in order to enhance soluble expression in insect cell expression system. The proteins were expressed in sf9 insect cells via baculovirus transduction and cells were harvested after 48 hours. […] DNA polymerase activity was measured using a molecular beacon-based assay, as described in Ma et. al. […]
pIC50: −log10 of the molar value.
Everything with pIC50 lower than 7 is Not met; everything else, including exactly 7, is Met.

N#Cc1ccc(CNC(=O)c2ccc3n(c2=O)CCN(CC2(S(=O)(=O)[C@H]4CC4(F)F)CC2)C3=O)cc1F (single isomer, unassigned) = Met
CS(=O)(=O)N1CC(CN2CCn3c(ccc(C(=O)NCc4ccc(Cl)cc4)c3=O)C2=O)C1 = Not met
CC(C)(c1nnn[nH]1)S(=O)(=O)C1(CN2CCn3c(ccc(C(=O)NCc4ccc(Cl)cc4)c3=O)C2=O)CC1 = Met
CS(=O)(=O)C1(CN2CCn3c(ccc(C(=O)NCC4CCC(F)(F)CC4)c3=O)C2=O)CC1 = Not met
Cc1cc(C(=O)NCc2ccc(Cl)cc2)c(=O)n2c1C(=O)N(CC1(S(=O)(=O)C3CC3)CC1)CC2 = Met
N#Cc1ccc(CNC(=O)c2ccc3n(c2=O)CCN(CC2(S(=O)(=O)[C@H]4CC4(F)F)CC2)C3=O)cc1 (single isomer, unassigned) = Met
CC(=O)N(C)C1(CN2CCn3c(ccc(C(=O)NCc4ccc(Cl)cc4)c3=O)C2=O)CC1 = Not met
CS(=N)(=O)C1(CN2CCn3c(ccc(C(=O)NCc4ccc(Cl)cc4)c3=O)C2=O)CC1 (stereo not shown) = Not met

Exercise: Is the recorded value of pIC50 equal to or greater than 7 for this molecule? `CS(=O)(=O)NCCN1CCn2c(ccc(C(=O)NCc3ccc(Cl)cc3)c2=O)C1=O`
Key: Not met

Exercise: In plain terms: is recorded pIC50 at least 7 for `CC(C)(CN)S(=O)(=O)C1(CN2CCn3c(ccc(C(=O)NCc4ccc(Cl)cc4)c3=O)C2=O)CC1` ?
Key: Met

Exercise: Is pIC50 for `CCN1CCn2c(ccc(C(=O)NCc3ccc(Cl)cc3)c2=O)C1=O` at or above 7?
Key: Not met

Exercise: I'd appreciate it if you could say whether `CS(=O)(=O)CCCN1CCn2c(c(C#N)cc(C(=O)NCc3ccc(Cl)cc3)c2=O)C1=O` has pIC50 at least equal to 7.
Key: Not met

Exercise: Quick check, pIC50 >= 7? `O=C(NCc1ccc(Cl)cc1)c1ccc2n(c1=O)CCN(CC1(S(=O)(=O)C3(CO)CC3)CC1)C2=O`
Key: Met

Exercise: API: above_or_equal(metric=pIC50, cutoff=7) for item `O=C(NCc1ccc(Cl)cc1)c1ccc2n(c1=O)CCN(CC1(N3CCCCC3=O)CC1)C2=O`
Key: Not met

Exercise: Entry `CN(C(C)(C)C)S(=O)(=O)C1(CN2CCn3c(ccc(C(=O)NCc4ccc(Cl)cc4)c3=O)C2=O)CC1` : is its pIC50 no less than 7?
Key: Met

Exercise: Could you please find out whether `CC(C)(CO)S(=O)(=O)C1(CN2CCn3c(ccc(C(=O)NCc4ccc(C#N)nc4)c3=O)C2=O)CC1` has pIC50 that meets 7 or exceeds it?
Key: Met
